Listing: microsomal CLint of selected molecules
test: in vitro; conditions: human, liver microsomes
Please respond with the number in µL/min/mg and leave the unit unwritten.

Use these answered entries as a reference point.
C=CCN(C(=O)Cc1ccc(S(C)(=O)=O)cc1)C1CCN(CCC(c2ccccc2)c2ccccc2)CC1 = 10
Cc1ccc(S(=O)(=O)Nc2c(C(=O)N[C@@H](C)C(C)(C)C)c(C)nn2CC(F)(F)F)cc1 = 17
CC1CCC(CC(=O)Nc2cccc3ncccc23)CC1 (stereo not given) = 38
C[C@H](CO)Nc1[nH]c(SCc2ccccc2F)nc2nc(=O)sc1-2 = 3

API: the following record is the query input.
Query: Please give measured microsomal CLint of the following entry: O=C(Nc1cc(-c2ccncc2)c[nH]c1=O)[C@H](Cc1ccccc1)NC1(c2ccccn2)CC1
Response: 19.1

* * *

test: in vitro; settings: mouse, plasma
Respond with satisfied for fraction unbound at 5 h values of 0.02 and above, not satisfied for values below.

Look over these answered cases.
CO[C@H]1CC[C@]2(CC1)Cc1ccc(-c3cncc(Br)c3)cc1C21N=C(C)C(N)=N1 (stereo not given in full) = satisfied
O=C1Nc2cc(C(F)(F)F)ccc2C1(O)c1cc(Cl)ccc1O (stereo not given) = satisfied
N#CCOc1ccccc1-c1ccc(-c2nc3ccncc3c(O)c2C#N)cc1 = not satisfied
COc1ccc(CC(=O)NCc2ccccc2-c2ccccc2C(=O)NCCc2cccnc2)cc1 = satisfied

Lab note: next compound to report on.
Query: Has Nc1scc2c(C(=O)NC3CC3)nn(-c3ccc(F)cc3)c(=O)c12 a recorded fraction unbound at 5 h greater than or equal to 0.02?
Response: satisfied

* * *

Listing: logD of selected compounds
experiment: physchem; conditions: octan-1-ol/water, pH 7.4, LogD7.4
Simply state the number, no unit and no words.

Use these answered entries as a reference point.
O=C(c1ccc(F)cc1)C(O)c1ccc(F)cc1 (stereo unspecified) = 2.49
O=C(NC[C@@H](O)CN1CCC(Oc2ccc(Cl)c(Cl)c2)CC1)c1c[nH]c(=O)cc1C(F)(F)F = 2.71
CCOc1ccccc1-c1ccc(-c2nc3ccncc3c(O)c2C#N)cc1 = 3
CC(=O)NC[C@H]1CN(c2ccc(-n3ccnc3)c(F)c2)C(=O)O1 = 0.7
C1=C(c2cc3ccccc3o2)C2CCN1CC2 = 2.59

Query: Please give measured logD of the following entry: CC(=O)c1ccc(S(=O)(=O)NC(=O)NC2CCCCC2)cc1 [ACETOHEXAMIDE]
Response: -0.49

* * *

assay: physchem; conditions: pH 7.4 buffer
readout: solubility thermodynamic (µM)
Please respond with the number in µM and leave the unit unwritten.

Use these answered entries as a reference point.
CNc1cccc(CCOc2ccc(C[C@H](NC(=O)c3c(Cl)cccc3Cl)C(=O)O)cc2)n1 = 1510
COc1ccc2c(c1)[nH]c1c(C)nccc12 = 55
Cc1ccc(NC(=O)c2cncs2)cc1-n1cnc2ccc(N3CCN(C)CC3)cc2c1=O = 537
C[C@@H](Oc1cccc2ncnc(Nc3ccc4c(cnn4Cc4ccccn4)c3)c12)C(N)=O = 4
O=C(CN1CCOCC1)Nc1ccc(-c2cccc3c(=O)cc(N4CCOCC4)oc23)cc1O = 7.2
O=C(Cc1cc(Nc2ncnc3cc(OCCCN4CCC[C@@H]4CO)ccc23)n[nH]1)Nc1cccc(F)c1F = 141
Cc1ccc(Oc2ccc(Nc3ncnc4cccc(O[C@H](C)C(=O)NCCO)c34)cc2C)cn1 = 4.2
COC(=O)N[C@H](C(=O)N1CCC[C@H]1c1nc(-c2ccc(-c3ccc(-c4c[nH]c([C@@H]5CCCN5C(=O)[C@@H](NC(=O)OC)C(C)C)n4)cc3)cc2)c[nH]1)C(C)C = 10.2

Query: Please give measured solubility thermodynamic of the following entry: CC/C(=C(/CC)c1ccc(O)cc1)c1ccc(O)cc1
Response: 25.1

* * *

test: physchem; details: octan-1-ol/water, pH 7.4, LogD7.4
Respond with Fulfilled for logD values of 2 and above, Not fulfilled for values below.

Cn1cnc2cc(OC(=O)c3ccccc3)cnc21 = Fulfilled
O=C(c1ccc(F)cc1)C1CCN(C(=O)NCc2ccccc2)CC1 = Fulfilled
C[S+]([O-])CCN1C(=O)C(NC(=O)c2cc3cc(Cl)sc3[nH]2)Cc2ccccc21 (stereo not given) = Fulfilled
c1cc2c(cc1-c1cnc3n1CCC3)OCCO2 = Fulfilled

Lab note: next compound to report on.
Query: Has CC(C)Cn1c(=O)n(C)c(=O)c2c(C(=O)N3CC[C@@H](O)C3)c(Cc3cncc4ccccc34)sc21 a recorded logD greater than or equal to 2?
Response: Not fulfilled

* * *

assay: physchem; conditions: octan-1-ol/water, pH 7.4, LogD7.4
Respond with 1 for logD values of 3 and above, -1 for values below.

Look over these answered cases.
COc1ccc2ncc(=O)n(CCN3CC[C@@H](NCc4ccc5c(n4)NC(=O)CO5)[C@@H](F)C3)c2c1 = -1
Cc1ccc(CNC(=O)C2CCCN2S(=O)(=O)c2ccc(F)cc2)cc1 (stereo not given) = -1
CN(C)C(=O)CC(NC(=O)C1(N)CCN(c2ncnc3[nH]ccc23)CC1)c1ccc(Cl)cc1 (stereo not given) = -1
O=C1CCOc2nc(/C=C/c3ccccc3)ccc21 = 1
CC(C)Oc1cc(-n2cnc3ccc(N[C@@H](CO)c4ccc(F)cn4)nc32)n[nH]1 = -1

Query: Has CC(C)C(=O)Nc1ccc2c(c1)C(=O)NC2=O a recorded logD greater than or equal to 3?
Response: -1

Query: Has COc1ccc(CC(=O)Nc2nc3ccccc3[nH]2)cc1 a recorded logD greater than or equal to 3?
Response: -1

Query: Has Cc1[nH]c2nc(NCc3cccc(Br)c3)nn2c(=O)c1Cc1ccccc1 a recorded logD greater than or equal to 3?
Response: 1

* * *

Listing: logD of selected compounds
test: physchem; conditions: octan-1-ol/water, pH 7.4, LogD7.4

Use these answered entries as a reference point.
Cc1ccc(S(=O)(=O)Nc2c(C(=O)N[C@@H](C)C(C)(C)C)c(C)nn2C2CCSCC2)cc1 = 1.29
Nc1nc(-c2ccc(Cl)cc2)cs1 = 3.31
CN1CCC(Oc2cccc3ncnc(Nc4ccc(OCc5cnccn5)c(Cl)c4)c23)CC1 = 3.21
COc1ccc(Cl)cc1C(=O)Nc1nc2ccccc2[nH]1 = 4.05
CCN(CC)CCOC(=O)c1ccc(N)cc1 = 0
O=c1[nH]c2c(O)ccc([C@@H](O)CNCCSCCCNCCc3cccc(C(F)(F)F)c3)c2s1 = 1.21

Query: Please give measured logD of the following entry: Cc1oc(S(C)(=O)=O)cc1-c1c2c(=O)n(C)c(=O)n(CC3CC3)c2nn1Cc1cn(C)c2ccc(Cl)cc12
Response: 4.48

* * *

test: in vitro; details: mouse, plasma
Listing: fraction unbound at 5 h of selected compounds
Simply state the number, no unit and no words.

Use these answered entries as a reference point.
CCCC[C@H](NC[C@@H]1Cc2cccc(c2)CCCCc2cc(cc(N(CCC)S(C)(=O)=O)c2)C(=O)N1)C(=O)NCC(C)C = 0.002
Cc1cc(N2CCC[C@@H]2C(=O)NCCc2ccc3c(c2)OCO3)nc(-n2ccnc2)n1 = 0.154
C1Cc2[nH]nc(-c3nnn[nH]3)c2C1 = 0.371
Cn1c(-c2cccc(F)c2)nc2c(N)nc(C#CC3(O)CCCC3)nc21 = 0.0752
CCOc1ncc(C)c2c1[C@H](c1ccc(C#N)cc1OC)C(C(N)=O)=C(C)N2 = 0.0007

API: the following record is the query input.
Query: Please give measured fraction unbound at 5 h of the following entry: CCS(=O)(=O)c1ccc(-c2cc(C(F)(F)F)ccc2OCC(=O)O)c(C)c1
Response: 0.208

* * *

Listing: log10(hepatocyte CLint) of selected molecules
assay: in vitro; details: hepatocytes
Scale type: logarithmic (base 10). Underlying hepatocyte CLint unit: µL/min/1e6 cells.

Use these answered entries as a reference point.
CCNC(=O)C[C@@H]1N=C(c2ccc(Cl)cc2)c2cc(OC)ccc2-n2c(C)nnc21 = 1.01
CN(CCNC[C@H](O)c1ccc(O)c2[nH]c(=O)sc12)C(=O)CCOCCc1ccccc1 = 1.63

Query: Please give measured log10(hepatocyte CLint) of the following entry: CCCCNC(=O)NS(=O)(=O)c1ccc(C)cc1 [TOLBUTAMIDE]
Response: 0.82

Query: Please give measured log10(hepatocyte CLint) of the following entry: CS(=O)(=O)N1CC[C@H](N(Cc2ccccc2Cl)c2ccc(C#N)c(Cl)c2)C1
Response: 1.86

Query: Please give measured log10(hepatocyte CLint) of the following entry: CC(C)C(=O)Nc1nc(-c2ccccn2)cc2ccccc12
Response: 1.79

Query: Please give measured log10(hepatocyte CLint) of the following entry: CCS(=O)(=O)c1ccc(-c2cc(Cl)ccc2OCC(=O)O)c(F)c1
Response: 0.63

Query: Please give measured log10(hepatocyte CLint) of the following entry: O=C(NCCCCCCNCCc1ccc(O)c2nc(O)sc12)Nc1ccccc1
Response: 1.99

Query: Please give measured log10(hepatocyte CLint) of the following entry: CC(C(=O)OC1CC[N+](C)(C)CC1)(c1ccccc1)N1CCC(F)(F)CC1 (centres undefined)
Response: 1.58

Query: Please give measured log10(hepatocyte CLint) of the following entry: CCC(C)(C)C[C@H](c1ccc(C(=O)O)c(Oc2cccc(Cl)c2)c1)N1CCC[C@H](n2cc(C)c(=O)[nH]c2=O)C1
Response: 2.07

Query: Please give measured log10(hepatocyte CLint) of the following entry: Cc1cn([C@H]2CCCN([C@H](CC3CCCCC3)c3ccc(C(=O)O)c(Oc4cccc(Cl)c4)c3)C2)c(=O)[nH]c1=O
Response: 1.63

Query: Please give measured log10(hepatocyte CLint) of the following entry: COc1cccc2c1c(NS(=O)(=O)c1ccc(Cl)s1)nn2Cc1cccc(CNC(=O)C(C)(C)O)c1
Response: 1.40

Query: Please give measured log10(hepatocyte CLint) of the following entry: Nc1ncnc2c1ncn2[C@@H]1O[C@H](CSCCCNC(=O)NCc2ccccc2)[C@@H](O)[C@H]1O
Response: 1.16

# credit: ChEMBL document CHEMBL3301361
